Assay: qHTS assay for identifying genotoxic compounds that show differential cytotoxicity against isogenic chicken DT40 cell lines with known DNA damage response pathways - Rad54/Ku70 mutant cell line (AID 743015); note: nearly all actives have a fitted effect of over 60% in size
Settings: DT40 Rad54/Ku70 mutant viability, CellTiter-Glo, 40 h; series mostly up to 66.8 µM
Records with an inconclusive call do not appear. Active and inactive are the calls of the source. Calls come from the whole dose curve; as a rule, active = well fitted cell-killing curve with a large enough effect in the repeat runs; inconclusive = weak or mixed curves; inactive = no such curve, though single readings can be large or run the other way.
Outcome (select one): Y = active, N = inactive

What is the recorded call for this molecule in the test? O=C(O)c1ccc(O)cc1O
N

What is the recorded call for this molecule in the test? O=C(NS(=O)(=O)/C=C/c1ccccc1)c1ccc(F)cc1Cl
N

What is the recorded call for this molecule in the test? CC(C)N=C=NC(C)C
N

What is the recorded call for this molecule in the test? O=c1[nH][nH]c(=O)c2cc([N+](=O)[O-])ccc12
N

What is the recorded call for this molecule in the test? CC(C)c1ccc(C#N)cc1
N

What is the recorded call for this molecule in the test? COc1ccc(C2C(=O)c3ccccc3C2=O)cc1
N

What is the recorded call for this molecule in the test? CC(=O)OCC(C)C
N

What is the recorded call for this molecule in the test? O=C(C(=O)c1ccco1)c1ccco1
N

What is the recorded call for this molecule in the test? CCN(CC)c1cccc(O)c1
N

What is the recorded call for this molecule in the test? Cc1ccc(Nc2c(F)cccc2Cl)c(CC(=O)O)c1
N

What is the recorded call for this molecule in the test? O=C(O)CNC(=O)c1ccccc1I
N

What is the recorded call for this molecule in the test? CCCCCCCCCCCCCCN(C)C
N

What is the recorded call for this molecule in the test? CCNc1nc(N)nc(Cl)n1
N

What is the recorded call for this molecule in the test? CC1=C2[C@@H]([C@H](C)CC[C@H]2/C=C(\C)C(=O)O)[C@H](O)C1
N

What is the recorded call for this molecule in the test? C[C@@H]1C[C@H]2[C@@H]3CCC4=CC(=O)C=C[C@]4(C)[C@@]3(F)[C@@H](O)C[C@]2(C)[C@@]1(O)C(=O)COP(=O)(O)O
N

What is the recorded call for this molecule in the test? Cc1ccc(N(CCO)CCO)cc1
N

What is the recorded call for this molecule in the test? Cc1ccc2nc(N)[nH]c(=O)c2c1Sc1ccncc1
Y

What is the recorded call for this molecule in the test? FC(F)(F)C(F)(F)C(F)(F)C(F)(F)CCI
N

What is the recorded call for this molecule in the test? CCC1CCC(CCC(=O)O)C1 (stereo not given)
N

What is the recorded call for this molecule in the test? BrC(Br)C(Br)Br
N

* * *

Target: Bile acid receptor (Homo sapiens) (UniProt Q96RI1)
Sequence (Q96RI1 whole entry, looked up): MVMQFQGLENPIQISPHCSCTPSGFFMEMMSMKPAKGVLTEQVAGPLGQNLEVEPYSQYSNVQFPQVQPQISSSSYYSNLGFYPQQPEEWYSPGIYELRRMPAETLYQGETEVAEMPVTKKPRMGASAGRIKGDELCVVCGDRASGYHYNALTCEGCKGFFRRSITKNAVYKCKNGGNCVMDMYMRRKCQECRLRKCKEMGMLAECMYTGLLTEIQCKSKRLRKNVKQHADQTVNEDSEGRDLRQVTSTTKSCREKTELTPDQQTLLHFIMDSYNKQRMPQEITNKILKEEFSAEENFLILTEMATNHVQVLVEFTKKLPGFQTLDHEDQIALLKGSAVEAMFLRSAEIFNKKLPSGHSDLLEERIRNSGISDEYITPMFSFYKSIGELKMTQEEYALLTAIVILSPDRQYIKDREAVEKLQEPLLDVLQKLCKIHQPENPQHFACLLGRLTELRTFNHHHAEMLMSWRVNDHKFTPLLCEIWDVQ
Assay: qHTS assay to identify small molecule agonists of the farnesoid-X-receptor (FXR) signaling pathway (AID 743220)
Details: HEK293T FXR-UAS-bla, beta-lactamase FRET ratio, 16 h; series mostly up to 62.6 µM
Results filed as inconclusive are left out. Activity calls are given as the source filed them. Calls follow the shape of the dose curve; as a rule, active = well fitted activation curve with a large enough effect in the signal ratio in the repeat runs (not every such curve was filed as active); inconclusive = weak or mixed curves, or effect the other way; inactive = flat fitted curve, though single readings scatter; the % refers to the signal ratio.
Measurement name: outcome

Example compounds with recorded outcome:
Compound	outcome
CC(CCc1ccc(O)cc1)NCCc1ccc(O)c(O)c1 (configuration not stated)	inactive
CCCCCC	inactive
CC(C)(O)c1coc(S(=O)(=O)NC(=O)Nc2c3c(cc4c2CCC4)CCC3)c1	inactive
CC(C)(C)C(O)/C=C/c1ccc2c(c1)OCO2 (configuration not stated)	inactive
C=C(C)c1ccccc1	inactive

What measured outcome is associated with CO[C@@H]1[C@@H](OC)[C@H](C)[C@@](O)(CC(=O)O)O[C@H]1[C@H](C)[C@H]1O[C@@]2(CC[C@@](C)([C@H]3CC[C@@](C)([C@@H]4O[C@@H]([C@H]5O[C@](C)(O)[C@H](C)C[C@@H]5C)C[C@@H]4OC4C[C@H](OC)[C@@H](OC)[C@H](C)O4)O3)O2)C[C@H](O)[C@H]1C (some centres not stated) on Bile acid receptor (Homo sapiens) (UniProt Q96RI1)?
inactive

What measured outcome is associated with CC(C)(C)CCCCCCOC(=O)c1ccccc1C(=O)OCCCCCCC(C)(C)C on Bile acid receptor (Homo sapiens) (UniProt Q96RI1)?
inactive

What measured outcome is associated with COc1ccc(/C=C/C(=O)c2ccc(OC)cc2OC)cc1 on Bile acid receptor (Homo sapiens) (UniProt Q96RI1)?
inactive

What measured outcome is associated with O=C(O)CCCc1c[nH]c2ccccc12 on Bile acid receptor (Homo sapiens) (UniProt Q96RI1)?
inactive

What measured outcome is associated with CCN(CC)CCOC(=O)C(c1ccccc1)c1ccccc1 on Bile acid receptor (Homo sapiens) (UniProt Q96RI1)?
inactive

What measured outcome is associated with CCc1ccc(C)cc1 on Bile acid receptor (Homo sapiens) (UniProt Q96RI1)?
inactive

What measured outcome is associated with COc1ccc(-c2cc(C(F)F)nn2-c2ccc(S(N)(=O)=O)cc2)cc1F on Bile acid receptor (Homo sapiens) (UniProt Q96RI1)?
inactive

* * *

Experiment: qHTS assay to identify small molecule agonists of the sonic hedgehog signaling (Shh) pathway - cell viability counter screen (AID 1259366); note: nearly all actives have a fitted effect of over 50% in size
Details: NIH/3T3 Gli1-Luc viability, CellTiter-Fluor, 24 h; series mostly up to 92.4 µM
Inconclusive results are not listed. The source made the active and inactive calls. Calls follow the shape of the dose curve; as a rule, active = well fitted cell-killing curve with a large enough effect in the repeat runs; inconclusive = weak or mixed curves, or effect the other way; inactive = flat fitted curve, though single readings scatter.
Outcome (select one): active, inactive

What is the recorded call for this molecule in the test? O[C@@H](CNC[C@H](O)[C@H]1CCc2cc(F)ccc2O1)[C@@H]1CCc2cc(F)ccc2O1
active

What is the recorded call for this molecule in the test? CC(C)C1CCC(C(=O)N[C@H](Cc2ccccc2)C(=O)O)CC1 (some centres not stated)
inactive

What is the recorded call for this molecule in the test? COc1ccc(C(=O)NCc2ccc(OCCN(C)C)cc2)cc1OC
inactive

What is the recorded call for this molecule in the test? COC(=O)C1=C(C)NC(C)=C(C(=O)OC(C)(C)CN(C)CCC(c2ccccc2)c2ccccc2)C1c1cccc([N+](=O)[O-])c1 (configuration not stated)
inactive

What is the recorded call for this molecule in the test? CCC(=O)OCc1ccc(OC)cc1
inactive

What is the recorded call for this molecule in the test? CC(C)(C)CCCCCCOC(=O)c1ccccc1C(=O)OCCCCCCC(C)(C)C
inactive

What is the recorded call for this molecule in the test? Nc1ccc(F)cc1
inactive

What is the recorded call for this molecule in the test? O=C1c2ccccc2C(=O)c2c(O)ccc(O)c21
inactive

What is the recorded call for this molecule in the test? O=C(C(=O)c1ccco1)c1ccco1
inactive

What is the recorded call for this molecule in the test? CCCCCCCCCCCSCC(=O)O
inactive

What is the recorded call for this molecule in the test? CC(=O)OCCC1CCCCC1
inactive

What is the recorded call for this molecule in the test? CC(=O)NCCO
inactive

* * *

Molecular target: Estrogen receptor beta (Homo sapiens)
Test: qHTS assay to identify small molecule agonists of the estrogen receptor beta (ER-beta) signaling pathway (AID 1259377)
Details: ER-beta-UAS-bla HEK293T, beta-lactamase FRET ratio, 16 h; series mostly up to 92.4 µM
Records with an inconclusive call do not appear. Activity calls are given as the source filed them. Calls follow the shape of the dose curve; as a rule, active = well fitted activation curve with a large enough effect in the signal ratio in the repeat runs (not every such curve was filed as active); inconclusive = weak or mixed curves, or effect the other way; inactive = flat fitted curve, though single readings scatter; the % refers to the signal ratio.
Measurement name: activation

Example compounds with recorded activation:
Compound	Observed result
CC1CCc2nccnc21 (stereo not drawn)	inactive
CCc1ccc(C)cc1	inactive
CC(C)Cc1ccc(CC(=O)O)cc1	inactive
O=P(O)(O)Oc1ccccc1	inactive
CC(C(=O)O)c1ccc(C(=O)c2cccs2)cc1 (stereo not drawn)	inactive
CSCC[C@H](NC(=O)[C@H](Cc1c[nH]c2ccccc12)NC(=O)CCNC(=O)OC(C)(C)C)C(=O)N[C@@H](CC(=O)O)C(=O)N[C@@H](Cc1ccccc1)C(N)=O	inactive
O=C(O)CNC(=O)c1ccccc1I	inactive

What measured activation is associated with CCCCCCC(O)CCOC(C)=O (stereo not drawn) on Estrogen receptor beta (Homo sapiens)?
inactive

* * *

Target: Nuclear receptor subfamily 1 group I member 3 (Homo sapiens) (UniProt Q14994)
Sequence (Q14994 whole entry, looked up): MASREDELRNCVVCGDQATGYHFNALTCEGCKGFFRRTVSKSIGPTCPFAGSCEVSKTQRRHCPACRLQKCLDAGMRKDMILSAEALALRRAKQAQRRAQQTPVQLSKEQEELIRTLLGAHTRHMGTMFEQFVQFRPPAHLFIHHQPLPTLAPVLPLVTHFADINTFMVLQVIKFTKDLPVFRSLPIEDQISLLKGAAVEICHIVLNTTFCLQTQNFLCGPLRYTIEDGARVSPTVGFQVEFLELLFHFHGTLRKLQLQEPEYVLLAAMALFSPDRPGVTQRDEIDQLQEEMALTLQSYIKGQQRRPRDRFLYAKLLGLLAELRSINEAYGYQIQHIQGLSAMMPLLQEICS
Test: qHTS assay to identify small molecule agonists of the constitutive androstane receptor (CAR) signaling pathway (AID 1224839); note: nearly all actives have a fitted effect of over 15% in size;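 for activation: HepG2 cells stably carrying human CAR and a CYP2B6 luciferase reporter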
Details: HepG2 hCAR CYP2B6-luciferase, agonist mode, 24 h; series mostly up to 92.4 µM
Inconclusive results are not listed. Activity calls are given as the source filed them. The call rests on the fitted dose curve; in most records, active means well fitted activation curve with a large enough effect in the repeat runs; inconclusive means weak or mixed curves; inactive means no such curve, though single readings can be large or run the other way.
Outcome (select one): YES = active, NO = inactive

What is the recorded call for this molecule in the test? NC(=O)CCCCC(N)=O
NO

What is the recorded call for this molecule in the test? COc1ccc(-c2cc(C(F)F)nn2-c2ccc(S(N)(=O)=O)cc2)cc1F
NO

What is the recorded call for this molecule in the test? CCOC(=O)Oc1ccc(CCNC(=O)[C@H](CCSC)NC(C)=O)cc1OC(=O)OCC
NO

What is the recorded call for this molecule in the test? Nc1ccc(NC(=O)c2ccc(N)cc2)cc1
NO

What is the recorded call for this molecule in the test? Oc1ccc2c(c1)Cc1ccccc1-2
YES

What is the recorded call for this molecule in the test? O=C(NC(Cc1cc(=O)[nH]c2ccccc12)C(=O)O)c1ccc(Cl)cc1 (stereo unspecified)
NO

* * *

Target: Cytochrome P450 2D6 (Homo sapiens) (UniProt P10635)
Sequence (P10635 whole entry, looked up): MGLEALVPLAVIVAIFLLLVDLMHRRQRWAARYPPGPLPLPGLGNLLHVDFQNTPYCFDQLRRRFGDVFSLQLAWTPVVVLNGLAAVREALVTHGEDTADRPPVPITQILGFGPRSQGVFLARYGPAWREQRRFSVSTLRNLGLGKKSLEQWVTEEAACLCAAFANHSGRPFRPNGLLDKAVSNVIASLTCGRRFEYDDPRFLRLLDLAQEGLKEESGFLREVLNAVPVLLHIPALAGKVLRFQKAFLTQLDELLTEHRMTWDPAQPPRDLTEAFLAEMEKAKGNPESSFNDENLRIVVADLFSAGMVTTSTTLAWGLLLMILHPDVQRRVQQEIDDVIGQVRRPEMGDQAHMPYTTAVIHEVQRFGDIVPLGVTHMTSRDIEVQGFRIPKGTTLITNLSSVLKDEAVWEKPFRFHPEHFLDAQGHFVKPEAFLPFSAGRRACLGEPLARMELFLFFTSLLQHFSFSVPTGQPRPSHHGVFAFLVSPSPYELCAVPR
Assay: Cytochrome P450 Family 2 Subfamily D Member 6 (CYP2D6) small molecule antagonists: luciferase reporter qHTS assay (AID 1671196); note: nearly all actives have a fitted effect of over 50% in size; note: potency is the fitted concentration of half-maximal effect
Conditions: P450-Glo CYP2D6 enzyme assay, luciferin luminescence, 1 h; series mostly up to 115 µM
Records with an inconclusive call do not appear. Calls of active or inactive are those of the source. The call rests on the fitted dose curve; in most records, active means well fitted inhibition curve with a large enough effect in the repeat runs; inconclusive means weak or mixed curves; inactive means no such curve, though single readings can be large or run the other way.
Measurement name: Potency

Example molecules with recorded Potency:
Molecule	Measurement name	Observed result
Cc1ccc2c(c1[N+](=O)[O-])C(=O)c1ccccc1C2=O	Potency	inactive
Oc1ccc2c(c1)Cc1ccccc1-2	Potency	inactive
C=C(C)C(=O)OCCC(F)(F)C(F)(F)C(F)(F)C(F)(F)C(F)(F)C(F)(F)F	Potency	inactive
[Cl][Nd]([Cl])[Cl]	Potency	inactive
CCCCCCCCCCCCCOS(=O)(=O)O	Potency	inactive

Look up Potency for this molecule: CCN(CC)C(=O)N1CCN(C)CC1
inactive

Look up Potency for this molecule: CCCCCCC(O)CCOC(C)=O (stereo not drawn)
inactive

Look up Potency for this molecule: Cc1cc(CCC(=O)OCCOCCOCCOC(=O)CCc2cc(C)c(O)c(C(C)(C)C)c2)cc(C(C)(C)C)c1O
9.78 µM (active)

Look up Potency for this molecule: CCN(CC)C(=O)/C(C#N)=C/c1cc(O)c(O)c([N+](=O)[O-])c1
inactive

Look up Potency for this molecule: Cc1ccccc1S(N)(=O)=O
inactive

Look up Potency for this molecule: NC(=O)CCCCC(N)=O
inactive

Source of measurements: PubChem BioAssay (Tox21)
